These entries and their values trace back to the Human Domainome abundance scans (Beltran et al. 2025).

B1: Serine/threonine-protein kinase A-Raf, residues 21 to 89; numbered along this chain, P10398 (parent)
chain: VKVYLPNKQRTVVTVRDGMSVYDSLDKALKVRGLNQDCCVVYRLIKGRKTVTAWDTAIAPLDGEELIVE

# Variants of: B1
# EXPERIMENT: abundance fitness (aPCA) (normalised: wild type 0, dead -1); higher = more abundant; growth selection in yeast, the domain comes from the species named
# MEASUREMENT SETUP: Homo sapiens
Listed here: items and their measured abundance fitness.
MEASURED METRIC: abundance fitness

- V15K: -0.797
- C39S: -0.585
- D62G: -0.047
- Q36F: -0.134
- I58G: -0.725
- Y22Q: 0.041
- V3W: -0.877
- K49L: -0.331
- N35F: -0.449
- G63H: -0.63
- K49E: -0.847
- S24A: 0.174
- K46A: 0.001
- V41K: -0.685
- R10K: -0.002
- L29Q: -0.913
- I58T: -0.729
- E64H: -0.339
- E65Q: -0.184
- T52Y: -0.188
- T50S: -0.402
- R32T: -0.2
- G63W: -0.78
- P60T: 0.027
- R48M: -0.183
- D37N: -0.186
- G47H: -0.907
- K49Y: -0.668
- Q36D: -0.582
- N7K: -0.343
- V12T: -0.096
- E65I: -0.088
- K30F: -0.574
- T52A: -0.174
- Q36T: -0.162
- Y42T: -0.561
- R43T: -0.225
- G33C: -0.694
- L5A: -0.772
- L34T: -1.05
- K8I: -0.683
- V3G: -0.966
